Where do the numbers come from? From paper PMC5199138.

- PROTOCOL_NOTES: Plasma and urine pharmacokinetics
- Format: in vivo, human
- STUDY_CONDITIONS: human, plasma, intravenous, 135 mg/m2, AUC0–24, weekly trial, W3, 135 mg/m^2 over 3 h, N=7; SD of geometric mean in parenthesis
OBSERVATION_TYPE: AUC(0-t) (ng·h/mL)
One number for each entry, in ng·h/mL.

Challenge: Given the molecule COc1cc2c3c(n(CCCN4CCOCC4)c(=O)c2cc1OC)-c1cc2c(cc1C3=O)OCO2 , write its reported AUC(0-t).
Response given: 21500

----------
- PROTOCOL_NOTES: Plasma and urine pharmacokinetics
- Assay type: in vivo, human
- STUDY_CONDITIONS: human, plasma, intravenous, 60 mg/m2, AUC0–24, weekly trial, W1, 60 mg/m^2 over 3 h, N=6; SD of geometric mean in parenthesis
OBSERVATION_TYPE: AUC(0-t) (ng·h/mL)
Answers are plain numbers, in ng·h/mL.

Challenge: Give the reported value of AUC(0-t) for this record: COc1cc2c3c(n(CCCN4CCOCC4)c(=O)c2cc1OC)-c1cc2c(cc1C3=O)OCO2
Response given: 13700
